Cited source for all entries: patent US5905074A

# assay_text: Calcium liability (tolerance test in mice)
# condition_description: mouse, in vivo, sc; daily subcutaneous, 4 consecutive days; dose resulting in zero weight gain during 5 day treatment period; read-out: highest tolerated dose (mice)
experimental_endpoint: MTD (µg/kg)
Reply numerically in µg/kg, unit not repeated.

Summary for this compound, C=C1/C(=C\C=C2/CCC[C@]3(C)[C@@H]([C@H](C)CCCC(C)(C)O)CCC[C@@H]23)C[C@@H](O)C[C@@H]1O [Compound of formula I] : MTD is 0.6
